Each recorded value in this set is attributed to patent US10857105B2.

- procedureSummary: Particle size and polydispersity index of nanoparticle compositions (Zetasizer Nano ZS)
- Assay type: physicochemical
- measurementParameters: Table 1A; lipid:DSPC:cholesterol:PEG-DMG 50:10:38.5:1.5 mol %
If the reported Size equals or exceeds 80 nm, assign satisfied. If not, assign not satisfied.

Asked: Has CCCCCCCCCOC(=O)CCCCCCCN(CCCCCCCC(=O)OC(CCCCCCCC)CCCCCCCC)CCCNC(=O)N(C)C a recorded Size greater than or equal to 80 nm?
Given back: satisfied

Asked: Moving on to the next compound: CCCCCCCCCOC(=O)CCCCCCCN(CCCCCCCC(=O)OC(CCCCCCCC)CCCCCCCC)C(CO)CO
Given back: not satisfied

Asked: Moving on to the next compound: CCCCCCCCCOC(=O)CCCCCCCN(CCO)CCCCCCCC(=O)OC(CCC)CCC
Given back: satisfied

Asked: Moving on to the next compound: CCCCCCCCC(CCCCCCCC)OC(=O)CCCCCCCN(CCO)CCCC(=O)OC(CCCCC)CCCCCCCC (stereo not shown)
Given back: not satisfied

Asked: Moving on to the next compound: CCCCCCCCCOC(=O)CCCCCCCN(CCCCCCCC(=O)OC(CCCCCCCC)CCCCCCCC)CCCn1ccc(=O)[nH]c1=O
Given back: not satisfied

Asked: Moving on to the next compound: CCCCCCCCCOC(=O)CCCCCCCN(CCO)CCCCCCCC(=O)OC(COCCCCCC)COCCCCCC
Given back: satisfied
